# System: human peripheral blood mononuclear cells (PBMCs)
# experimental.details: Human PBMC activation assay, cytokine levels (IL-10, IL-6, MCP-1, TNF-α) in supernatant after 24 hours (Example 9)
# condition.summary: human PBMC supernatant after 24 hours; 1.6 μM oligonucleotide
Below: a set of entries, each annotated with reported Levels of TNF-α.
Output spec: scalar in pg/mL, unitless text.

Reference set (3 entries):
Challenge: GET /values?readout=Levels of TNF-α&system=human peripheral blood mononuclear cells (PBMCs)&item= 830037 (antisense CTATTGGCTGATCTGG; 3-10-3 cEt gapmer, further chemistry not given here) [compound 830037]
Response given: 9.2

Challenge: GET /values?readout=Levels of TNF-α&system=human peripheral blood mononuclear cells (PBMCs)&item= 830121 (AGAATCAAGCCCTGGC; 3-10-3 cEt gapmer, further chemistry not given here) [compound 830121]
Response given: 3.6

Challenge: GET /values?readout=Levels of TNF-α&system=human peripheral blood mononuclear cells (PBMCs)&item= 829994 (GGAGGCAGGGCCGCGA; 3-10-3 cEt gapmer, further chemistry not given here) [compound 829994]
Response given: 8.0

***
Challenge: GET /values?readout=Levels of TNF-α&system=human peripheral blood mononuclear cells (PBMCs)&item= 830025 (antisense TTTGTAAATCGAAAGC; 3-10-3 cEt gapmer, further chemistry not given here) [compound 830025]
Response given: 5.4

Challenge: GET /values?readout=Levels of TNF-α&system=human peripheral blood mononuclear cells (PBMCs)&item= 790615 (CCAATGAGAATGCTTC; 3-10-3 cEt gapmer, further chemistry not given here) [compound 790615]
Response given: 4.2

Challenge: GET /values?readout=Levels of TNF-α&system=human peripheral blood mononuclear cells (PBMCs)&item= 798781 (CGTAAGATTCACAGCA; 3-10-3 cEt gapmer, further chemistry not given here) [compound 798781]
Response given: 5.1

Challenge: GET /values?readout=Levels of TNF-α&system=human peripheral blood mononuclear cells (PBMCs)&item= 736697 (antisense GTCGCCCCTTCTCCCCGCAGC; chemistry not fully specified) [compound 736697]
Response given: 6.8

Data provenance is patent US10517889B2.
